Target: T1, human IL-23 (human, UniProt P29460 23-328; Q9NPF7 20-189)
T1 construct: Recombinant (Ebioscience); HIS-tagged in flow cytometry, biotinylated in some assays; also called hIL-23; rhIL-23
T1 sequence 1: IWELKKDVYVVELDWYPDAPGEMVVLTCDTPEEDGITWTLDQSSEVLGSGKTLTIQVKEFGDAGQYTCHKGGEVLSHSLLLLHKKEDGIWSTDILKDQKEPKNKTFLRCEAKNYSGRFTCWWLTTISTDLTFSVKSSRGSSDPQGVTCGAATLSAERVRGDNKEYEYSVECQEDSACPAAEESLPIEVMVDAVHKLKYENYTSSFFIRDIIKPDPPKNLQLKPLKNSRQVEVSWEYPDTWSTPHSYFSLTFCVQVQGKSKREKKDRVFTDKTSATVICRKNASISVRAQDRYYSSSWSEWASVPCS
T1 sequence 2: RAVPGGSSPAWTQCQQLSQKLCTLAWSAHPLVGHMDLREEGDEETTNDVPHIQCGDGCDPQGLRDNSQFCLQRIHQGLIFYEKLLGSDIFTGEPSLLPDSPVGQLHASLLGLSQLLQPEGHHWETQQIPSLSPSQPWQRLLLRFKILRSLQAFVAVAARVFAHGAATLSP
Assay: SPR, purified scFv captured via FLAG
Each entry below carries its reported pKd.
Reminder that pKd means the negative base-10 logarithm of the concentration expressed in mol/L.

Tell me the measured pKd of scFv AU-G9 (scFv, scFv-80 variant: VH Q43R; VL I55T; not shown: proprietary C-terminal FLAG tag) scFv: QVQLVQSGAEVKKPGASVKVSCKASGYTFTDYYLHWVRQAPGRGLEWMGWIDPENGDTEYAPKFQGRVTMTTDTSTSTAYMELRSLRSDDTAVYYCNANKELRYFDVWGQGTMVTVSSGGGGSGGGGSGGGGSEIVMTQSPATLSVSPGERATLSCRASQSISINLHWYQQKPGQAPRLLIYFASQSTSGIPARFSGSGSGTEFTLTISSLQSEDFAVYYCQQSNSFPLTFGGGTKVEIKR , please.
9.89

Further cases:
Tell me the measured pKd of scFv AV-F11 (scFv, scFv-80 variant: VH S112P; VL I75T; not shown: proprietary C-terminal FLAG tag) scFv: QVQLVQSGAEVKKPGASVKVSCKASGYTFTDYYLHWVRQAPGQGLEWMGWIDPENGDTEYAPKFQGRVTMTTDTSTSTAYMELRSLRSDDTAVYYCNANKELRYFDVWGQGTMVTVPSGGGGSGGGGSGGGGSEIVMTQSPATLSVSPGERATLSCRASQSISINLHWYQQKPGQAPRLLIYFASQSISGIPARFSGSGSGTEFTLTTSSLQSEDFAVYYCQQSNSFPLTFGGGTKVEIKR , please.
10.03

Tell me the measured pKd of scFv BB-A9 (scFv, scFv-80 variant: VH T28A, T68S; not shown: proprietary C-terminal FLAG tag) scFv: QVQLVQSGAEVKKPGASVKVSCKASGYAFTDYYLHWVRQAPGQGLEWMGWIDPENGDTEYAPKFQGRVSMTTDTSTSTAYMELRSLRSDDTAVYYCNANKELRYFDVWGQGTMVTVSSGGGGSGGGGSGGGGSEIVMTQSPATLSVSPGERATLSCRASQSISINLHWYQQKPGQAPRLLIYFASQSISGIPARFSGSGSGTEFTLTISSLQSEDFAVYYCQQSNSFPLTFGGGTKVEIKR , please.
9.80
